# Target: TFEB (Homo sapiens)
# Assay Text: Tfeb-Translocation Assay HEK-293T-oEX-Tfeb-GFP Cell Line
# Assay type: cell-based
# Details: HEK-293T-oEX-TFEB-GFP cells; translocation positive cells ratio; read-out: TFEB Translocation EC50
pEC50: −log10 of the molar value.
Measure: pEC50

# Smiles Structure, Target, Measure, Assay Value
rows = [
    ("Cc1nc2ccn(Cc3ccccc3)c(=O)c2cc1C(=O)NCc1ccc(F)cn1", "TFEB (Homo sapiens)", "pEC50", "> 7.00"),
]

QUERY: # get_value(readout= pEC50, system= TFEB (Homo sapiens)) for Cc1nc2ccn(Cc3ccc(F)cn3)c(=O)c2cc1C(=O)NCc1ccccn1
RESULT: 5.00 to 6.00

QUERY: // query: Cc1nc2ccn(Cc3ccccc3)c(=O)c2cc1C(=O)NCc1cnccn1
RESULT: 6.00 to 7.00

###

# Target: TFEB (Homo sapiens, UniProt P19484)
# Sequence (P19484 whole entry, species assumed): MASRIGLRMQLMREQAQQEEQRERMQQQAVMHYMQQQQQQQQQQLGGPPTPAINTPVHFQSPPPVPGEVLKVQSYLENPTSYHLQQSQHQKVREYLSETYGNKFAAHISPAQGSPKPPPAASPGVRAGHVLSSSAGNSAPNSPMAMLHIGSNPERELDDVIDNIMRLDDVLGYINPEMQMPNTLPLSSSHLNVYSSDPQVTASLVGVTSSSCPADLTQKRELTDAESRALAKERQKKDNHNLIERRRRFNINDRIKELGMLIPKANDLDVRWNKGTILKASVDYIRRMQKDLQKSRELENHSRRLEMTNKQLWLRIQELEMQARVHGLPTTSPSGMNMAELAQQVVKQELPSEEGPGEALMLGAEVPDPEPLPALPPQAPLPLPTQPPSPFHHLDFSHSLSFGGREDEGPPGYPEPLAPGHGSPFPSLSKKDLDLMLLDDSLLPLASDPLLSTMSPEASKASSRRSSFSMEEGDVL
# Assay Text: Tfeb-Translocation Assay HEK-293T-oEX-Tfeb-GFP Cell Line
# Format: cell-based
# Details: HEK-293T-oEX-TFEB-GFP cells; translocation positive cells ratio; read-out: TFEB Translocation EC50
pEC50: −log10 of the molar value.
Here the recorded pEC50 is given for each entry.

# Smiles Structure, Target, pEC50
rows = [
    ("COCCOCCOc1ccc(Cn2ccc3nc(C)c(C(=O)NCc4ccc(Cl)cn4)cc3c2=O)cc1", "TFEB (Homo sapiens, UniProt P19484)", "5.00 to 6.00"),
    ("Cc1nc2ccn(Cc3ccccc3)c(=O)c2cc1C(=O)NCc1ccc(C(N)=O)cc1", "TFEB (Homo sapiens, UniProt P19484)", "≤ 5.00"),
]

QUERY: Query (compound): Cc1ccc(CNC(=O)c2cc3c(=O)n(Cc4ccc(F)cn4)ccc3nc2C)o1 ; field requested: pEC50
RESULT: 6.00 to 7.00

QUERY: // query: Cc1nc2ccn(Cc3ccccc3)c(=O)c2cc1C(=O)NCc1cc(F)c(Cl)cn1
RESULT: > 7.00

QUERY: // query: Cc1ccc(Cn2ccc3nc(C)c(C(=O)NCc4ccccn4)cc3c2=O)cc1
RESULT: > 7.00

QUERY: // query: Cc1nc(CNC(=O)c2cc3c(=O)n(Cc4ccc(F)c(F)c4)ccc3nc2C)co1
RESULT: > 7.00

QUERY: // query: Cc1ccc(CNC(=O)c2cc3c(=O)n(Cc4ccccc4)ccc3nc2C)o1
RESULT: > 7.00

QUERY: // query: Cc1cnc(Cn2ccc3nc(C)c(C(=O)NCc4ccccn4)cc3c2=O)o1
RESULT: ≤ 5.00

QUERY: // query: Cc1cccc(CNC(=O)c2cc3c(=O)n(Cc4ccccc4)ccc3nc2C)c1
RESULT: 6.00 to 7.00

QUERY: // query: Cc1nc(CNC(=O)c2cc3c(=O)n(Cc4cccc(F)c4)ccc3nc2C)co1
RESULT: > 7.00

QUERY: // query: COc1ccc(CNC(=O)c2cc3c(=O)n(Cc4ccccc4)ccc3nc2C)cc1
RESULT: 5.00 to 6.00

QUERY: // query: Cc1nc(CNC(=O)c2cc3c(=O)n(Cc4ccc(F)cc4)ccc3nc2C)co1
RESULT: > 7.00

QUERY: // query: Cc1nc2ccn(Cc3ccccc3)c(=O)c2cc1C(=O)NCc1ncccc1F
RESULT: 5.00 to 6.00

QUERY: // query: Cc1nc2ccn(CC3CCCCC3)c(=O)c2cc1C(=O)NCc1ccccn1
RESULT: ≤ 5.00

QUERY: // query: Cc1nc2ccn(Cc3ccccc3)c(=O)c2cc1C(=O)NCc1ccc(OC(C)C)cc1
RESULT: ≤ 5.00

QUERY: // query: Cc1nc2ccn(Cc3ccc(F)cc3)c(=O)c2cc1C(=O)NCc1ccccn1
RESULT: > 7.00

QUERY: // query: Cc1nc2ccn(Cc3ccccc3)c(=O)c2cc1C(=O)NCc1cccnn1
RESULT: 5.00 to 6.00

QUERY: // query: Cc1nc2ccn(Cc3ccc(F)c(F)c3)c(=O)c2cc1C(=O)NCc1ccccn1
RESULT: > 7.00

###

# Target: TFEB (Homo sapiens)
# Assay Text: Tfeb-Translocation Assay HEK-293T-oEX-Tfeb-GFP Cell Line
# Type: cell-based
# Details: HEK-293T-oEX-TFEB-GFP cells; translocation positive cells ratio; read-out: TFEB Translocation EC50
Here the recorded EC50 is given for each entry.

Field: example entries. Status: answers known.
# Compound, EC50
measured = [
    ("Cc1nc2ccn(-c3ccccc3)c(=O)c2cc1C(=O)NCc1ccccn1 [Example 46]", "1000 to 10000 nM"),
    ("Cc1cnc(CNC(=O)c2cc3c(=O)n(Cc4ccccc4)ccc3nc2C)o1 [Example 3]", "100 to 1000 nM"),
    ("COCCn1ccc2nc(C)c(C(=O)NCc3ccccn3)cc2c1=O [Example 30]", "1000 to 10000 nM"),
    ("Cc1nc2ccn(Cc3ccccc3)c(=O)c2cc1C(=O)NCc1cc(F)ccn1 [Example 39]", "100 to 1000 nM"),
    ("Cc1nc2ccn(CC34CC(C3)C4)c(=O)c2cc1C(=O)NCc1ccccn1 [Example 60]", "1000 to 10000 nM"),
]

QUERY: Query (compound): Cc1nc2ccn(Cc3ccccc3)c(=O)c2cc1C(=O)NCc1ccncc1 [Example 12] ; field requested: EC50
RESULT: 1000 to 10000 nM

###

# Assay Text: In Vitro Liver Microsomes Metabolic Stability Assay, rat
# Assay type: in vitro ADME
# Details: rat liver microsomes 0.5 mg/mL, 1 μM compound, NADPH, 0 and 30 min; scale-up CLint; read-out: CLint, Rat LM
Entry flag: Satisfied if CLint scaled at 1 μM reaches 70 mL/min/kg; Not satisfied if it does not.

Below are worked cases with known answers.
# Molecule, Qualitative Label
rows = [
    ("Cc1nc2ccn(Cc3ccc(Cl)cc3)c(=O)c2cc1C(=O)NCc1ccc(F)cn1", "Not satisfied"),
    ("Cc1cccc(CNC(=O)c2cc3c(=O)n(Cc4ccccc4)ccc3nc2C)n1", "Satisfied"),
    ("Cc1nc(CNC(=O)c2cc3c(=O)n(Cc4ccccc4)ccc3nc2C)co1", "Satisfied"),
    ("Cc1ccc(CNC(=O)c2cc3c(=O)n(Cc4ccccc4)ccc3nc2C)o1", "Satisfied"),
    ("Cc1nc2ccn(Cc3ccccc3)c(=O)c2cc1C(=O)NCc1ccccn1", "Not satisfied"),
    ("Cc1nc2ccn(Cc3ccccc3)c(=O)c2cc1C(=O)NCc1ccccc1", "Satisfied"),
]

QUERY: Quick check: does Cc1nc2ccn(Cc3ccc(Cl)cc3)c(=O)c2cc1C(=O)NCc1ccccn1 have CLint scaled at 1 μM greater than or equal to 70 mL/min/kg?
RESULT: Not satisfied

QUERY: // query: Cc1cccc(CNC(=O)c2cc3c(=O)n(Cc4ccccc4)ccc3nc2C)c1
RESULT: Satisfied

QUERY: // query: Cc1nc2ccn(Cc3ccco3)c(=O)c2cc1C(=O)NCC1CCC(Cl)CC1 (stereo not shown) [Comparator 2, reference compound]
RESULT: Satisfied

###

# Target: TFEB (Homo sapiens)
# Assay Text: Tfeb-Translocation Assay HEK-293T-oEX-Tfeb-GFP Cell Line
# Format: cell-based
# Details: HEK-293T-oEX-TFEB-GFP cells; translocation positive cells ratio; read-out: TFEB Translocation EC50
Measure: EC50

Field: example entries. Status: answers known.
# Molecule, Assay Value
rows = [
    ("Cc1nc(CNC(=O)c2cc3c(=O)n(Cc4ccccc4)ccc3nc2C)no1", "1000 to 10000 nM"),
    ("Cc1nc2ccn(Cc3cccnc3)c(=O)c2cc1C(=O)NCc1ccc(Cl)cc1 [Comparator 1, reference compound]", "1000 to 10000 nM"),
    ("Cc1nc2ccn(Cc3cnn(C)c3)c(=O)c2cc1C(=O)NCc1ccccn1", "≥ 10000 nM"),
    ("Cc1nc2ccn(Cc3ccccc3)c(=O)c2cc1C(=O)NC(C)c1ccccn1 (centres unmarked)", "≥ 10000 nM"),
    ("Cc1nc2ccn(Cc3ccccc3)c(=O)c2cc1C(=O)NCc1cnn(C)n1", "100 to 1000 nM"),
]

QUERY: # get_value(readout= EC50, system= TFEB (Homo sapiens)) for Cc1cccc(CNC(=O)c2cc3c(=O)n(Cc4ccccc4)ccc3nc2C)n1
RESULT: 100 to 1000 nM

QUERY: // query: Cc1ccc(CNC(=O)c2cc3c(=O)n(Cc4cccs4)ccc3nc2C)o1
RESULT: < 100 nM

###

# Assay Text: In Vitro Liver Microsomes Metabolic Stability Assay, mouse
# Assay type: in vitro ADME
# Details: mouse liver microsomes 0.5 mg/mL, 1 μM compound, NADPH, 0 and 30 min; scale-up CLint; read-out: CLint, Mouse LM
Measure: CLint scaled at 1 μM (mL/min/kg)
Field: numeric (mL/min/kg). Do not append units.

QUERY: Query (molecule): Cc1nc2ccn(Cc3ccco3)c(=O)c2cc1C(=O)NCC1CCC(Cl)CC1 (stereo not shown) [Comparator 2, reference compound] ; field requested: CLint scaled at 1 μM
RESULT: 939

These data points were gathered from patent US20250281483A1.
